PDE3A (Homo sapiens): reported pIC50 for various compounds.
Sequence (Q14432 whole entry, species assumed): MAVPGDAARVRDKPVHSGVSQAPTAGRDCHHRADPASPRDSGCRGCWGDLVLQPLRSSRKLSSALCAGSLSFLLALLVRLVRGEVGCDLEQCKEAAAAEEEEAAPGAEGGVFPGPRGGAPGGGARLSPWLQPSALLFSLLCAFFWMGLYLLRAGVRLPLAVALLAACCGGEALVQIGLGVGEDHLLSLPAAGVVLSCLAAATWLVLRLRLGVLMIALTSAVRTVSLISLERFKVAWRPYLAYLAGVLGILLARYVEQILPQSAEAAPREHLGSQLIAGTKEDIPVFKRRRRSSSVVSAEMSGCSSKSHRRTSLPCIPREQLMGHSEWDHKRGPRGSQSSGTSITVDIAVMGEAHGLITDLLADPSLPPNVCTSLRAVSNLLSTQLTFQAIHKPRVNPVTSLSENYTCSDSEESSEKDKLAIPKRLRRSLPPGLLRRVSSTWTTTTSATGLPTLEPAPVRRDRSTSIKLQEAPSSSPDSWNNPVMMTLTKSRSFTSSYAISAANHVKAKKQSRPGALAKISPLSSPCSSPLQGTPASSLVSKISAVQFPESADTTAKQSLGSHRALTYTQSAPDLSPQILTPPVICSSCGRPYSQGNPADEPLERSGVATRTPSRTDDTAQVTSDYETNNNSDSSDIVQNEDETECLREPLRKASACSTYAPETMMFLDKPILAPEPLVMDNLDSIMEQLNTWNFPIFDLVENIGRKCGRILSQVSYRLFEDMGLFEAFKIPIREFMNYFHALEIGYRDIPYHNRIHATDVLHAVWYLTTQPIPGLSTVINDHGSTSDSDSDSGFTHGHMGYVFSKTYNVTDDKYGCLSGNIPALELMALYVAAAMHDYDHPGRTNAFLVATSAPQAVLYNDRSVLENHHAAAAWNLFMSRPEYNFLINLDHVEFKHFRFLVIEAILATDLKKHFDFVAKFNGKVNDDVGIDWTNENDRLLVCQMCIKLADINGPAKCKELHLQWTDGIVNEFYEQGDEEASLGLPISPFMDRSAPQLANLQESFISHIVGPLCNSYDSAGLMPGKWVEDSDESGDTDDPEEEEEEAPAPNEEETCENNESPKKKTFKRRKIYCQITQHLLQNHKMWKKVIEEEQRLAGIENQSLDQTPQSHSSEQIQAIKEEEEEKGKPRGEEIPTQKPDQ
pIC50: −log10 of the molar value.

CNC(=O)c1ccc(N2CCN(Cc3cc4c5c(c3)ncn5[C@H](C3CC3)C(=O)N4)CC2)c(C)n1 | < 5.00

Could you share what pIC50 was measured for CC[C@@H]1C(=O)Nc2cc(CN3CCN(c4ccc(C(=O)NC)nc4F)CC3)cc3cnn1c23 , tested on PDE3A (Homo sapiens)?
< 5.00

Form entry - test system: PDE3A (Homo sapiens); read-out: pIC50; compound: CNC(=O)c1ccc(N2CCN(Cc3cc4c5c(cnn5c3)N(C)C(=O)N4)CC2)c(C)n1
6.36

Record lookup: for PDE3A (Homo sapiens), what pIC50 belongs to CNC(=O)c1ccc(N2CCN(Cc3cc4c5c(c3)ncn5[C@@H](C3CC3)C(=O)N4)CC2)c(Cl)n1 ?
< 5.00

###

# protocol.description: Test of blood-brain barrier properties in rats
# Type: in vivo
# assay.context: male, Wistar Han, brain/plasma; rat, intravenous 1 mg/kg, after 4 h; read-out: Ratio % (brain/blood)
recorded.metric: Kp at 4 h

If you can, please state the reported Kp at 4 h value of CNC(=O)c1ccc(N2CCN(Cc3cc4c5c(cnn5C(C)C(=O)N4)c3)CC2)c(C)n1 (stereo not shown) .
0.138

###

# measured.target: Recombinant human PARP1 protein (Homo sapiens)
# protocol.description: PARP1 inhibitory activity (histone substrate, chemiluminescent ELISA)
# Type: biochemical
recorded.metric: pIC50
Recall that pIC50 is obtained by taking minus log10 of the concentration measured in molar.

For CCN1C(=O)Nc2cc(CN3CCN(c4ccc(C(=O)NC)nc4F)CC3)cc3c2c1nn3C [Compound B1, reference compound] , what is its reported pIC50?
8.85

###

Here the recorded pIC50 is given for each entry.
# measured.target: Recombinant human PARP1 protein (Homo sapiens, UniProt P09874)
# Sequence (P09874 whole entry): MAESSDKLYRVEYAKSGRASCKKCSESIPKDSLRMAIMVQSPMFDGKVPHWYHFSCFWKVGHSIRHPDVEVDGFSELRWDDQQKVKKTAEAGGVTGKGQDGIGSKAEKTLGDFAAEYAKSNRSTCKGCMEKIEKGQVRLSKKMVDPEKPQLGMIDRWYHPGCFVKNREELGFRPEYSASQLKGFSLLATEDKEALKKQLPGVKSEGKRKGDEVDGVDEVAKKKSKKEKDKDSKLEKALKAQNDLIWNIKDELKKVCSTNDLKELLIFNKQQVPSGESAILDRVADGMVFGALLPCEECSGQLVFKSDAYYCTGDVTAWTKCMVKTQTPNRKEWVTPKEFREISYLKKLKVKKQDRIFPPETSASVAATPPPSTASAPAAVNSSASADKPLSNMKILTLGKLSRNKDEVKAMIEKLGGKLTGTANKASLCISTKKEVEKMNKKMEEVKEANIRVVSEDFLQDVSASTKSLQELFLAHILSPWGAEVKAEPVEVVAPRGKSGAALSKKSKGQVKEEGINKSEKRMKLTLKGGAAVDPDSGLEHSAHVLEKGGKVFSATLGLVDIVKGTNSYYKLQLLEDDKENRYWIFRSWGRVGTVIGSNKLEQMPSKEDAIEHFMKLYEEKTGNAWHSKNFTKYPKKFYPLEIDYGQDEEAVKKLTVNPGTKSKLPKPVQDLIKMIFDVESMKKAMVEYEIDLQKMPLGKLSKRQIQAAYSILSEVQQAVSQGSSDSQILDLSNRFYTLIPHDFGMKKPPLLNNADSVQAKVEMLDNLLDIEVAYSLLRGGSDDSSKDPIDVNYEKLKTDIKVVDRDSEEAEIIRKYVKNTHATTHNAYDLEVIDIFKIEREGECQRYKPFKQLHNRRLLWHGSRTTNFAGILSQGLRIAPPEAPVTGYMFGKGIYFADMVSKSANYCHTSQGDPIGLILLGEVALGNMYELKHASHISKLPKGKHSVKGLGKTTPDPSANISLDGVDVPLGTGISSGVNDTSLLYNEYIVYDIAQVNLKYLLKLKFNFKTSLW
# protocol.description: PARP1 inhibitory activity (histone substrate, chemiluminescent ELISA)
# Assay type: biochemical
# assay.context: histone substrate; 500 µM NAD+ added to the substrate solution; read-out: PARP1 IC50
Quick note: pIC50 values are minus log10 of concentrations in mol/L.

CCCN1C(=O)Nc2cc(CN3CCN(c4ccc(C(=O)NC)nc4C)CC3)cn3ncc1c23 [Compound 62] | 8.48

Bench note: what pIC50 did CNC(=O)c1ccc(N2CCN(Cc3cc4c5c(cnn5c3)N(C3CC3)C(=O)N4)CC2)c(F)n1 [Compound 53] show?
8.67

For the compound CNC(=O)c1ccc(N2CCN(Cc3cc4c5c(c(C(F)(F)F)nn5c3)N(C)C(=O)N4)CC2)c(C)n1 [Compound 58] , what pIC50 is on record?
9.00

Look at this compound and give its reported pIC50. CNC(=O)c1ccc(N2CCN(Cc3cc4c5c(cnn5c3)N(C(C)C)C(=O)N4)CC2)c(F)n1 [Compound 55]
8.58

###

# measured.target: Recombinant human PARP1 protein (Homo sapiens)
# protocol.description: PARP1 inhibitory activity (histone substrate, chemiluminescent ELISA)
# Format: biochemical
# assay.context: ratio of PARP2 IC50 to PARP1 IC50
Label label 1 for high-side PARP1/2 Fold selectivity (at or above 400) and label 0 for low-side PARP1/2 Fold selectivity (below it).

Example entries and their recorded answers appear below.
CNC(=O)c1ccc(N2CCN(Cc3cc4c5c(c3)ncn5[C@@H](C3CC3)C(=O)N4)CC2)c(Cl)n1 | label 1
CCN1C(=O)Nc2cc(CN3CCN(c4ccc(C(=O)NC)nc4F)CC3)cc3c2c1nn3C [Compound B1, reference compound] | label 0
CNC(=O)c1ccc(N2CCN(Cc3cc4c5c(c3)ncn5[C@H](C3CC3)C(=O)N4)CC2)c(C)n1 | label 0
CNC(=O)c1ccc(N2CCN(Cc3cc4c5c(c3)ncn5C(C3CCC3)C(=O)N4)CC2)c(Cl)n1 (stereo not drawn) | label 1
CNC(=O)c1ccc(N2CCN(Cc3cc4c5c(cnn5c3)N(C3CCC3)C(=O)N4)C[C@H]2C)c(C)n1 | label 0

Please indicate if the recorded PARP1/2 Fold selectivity for CNC(=O)c1ccc(N2CCN(Cc3cc4c5c(cnn5c3)N(C3CC3)C(=O)N4)CC2)c(F)n1 meets or exceeds 400.
label 0

Decide: is the reported value of PARP1/2 Fold selectivity for CNC(=O)c1ccc(N2CCN(Cc3cc4c5c(c3)ncn5[C@H](C3CC3)C(=O)N4)CC2)c(Cl)n1 equal to or greater than 400?
label 0

Reference source for all entries: patent EP4759815A1
